System: PIP5K2B;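 further: KINOMEscan kinase panel screen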
Settings: concentration: 1 μM, replicates: in singlicate; n = 1
Provide the reported %Inh of each item.

// worked examples, %Inh included
COMPOUND	TARGET SYSTEM	MEASURED
CN1CCN(Cc2cccc(-c3ccc4c(Nc5ccc(Oc6ccccc6)cc5)ccnc4c3)c2)CC1	PIP5K2B	12%
Cl.Cl.NCC(NC(=O)c1cc(-c2ccccc2)c(-c2ccnc3[nH]ccc23)s1)c1ccccc1 (stereo not drawn)	PIP5K2B	14%
Nc1n[nH]c2cnc(-c3ccccc3)cc12	PIP5K2B	32%
Nc1ncc(-c2cccnc2)c2scc(-c3ccc4c(c3)CCN4C(=O)Cc3ccccc3)c12	PIP5K2B	19%
O=C(Nc1cccc(-c2nn3ccccc3c2-c2ccnc(Nc3cccc(F)c3)n2)c1)c1c(F)ccc(F)c1Cl	PIP5K2B	8%

Consider the following items and state reported %Inh for each.
1. Nc1ncnc2c1nc(-c1ccccc1)n2-c1ccccc1
2. COC(=O)Nc1nc2ccc(Oc3ccc(NC(=O)Nc4cc(C(F)(F)F)ccc4F)cc3)cc2n1C.Cl
3. Cc1ccc(F)c(C(=O)Nc2cccc(-c3nn4ccccc4c3-c3ccnc(Nc4cccc(F)c4)n3)c2)c1F
4. COc1cccc(C2=C(Nc3ccc(Cl)c(C(=O)O)c3)C(=O)NC2=O)c1
5. O=C(Nc1ccccc1F)NC1CCN(c2ccnc(Nc3ccc(F)cc3)n2)CC1
6. Cl.Cl.NCC(NCc1ccc(-c2ccnc3[nH]ccc23)s1)c1ccccc1 (stereo not drawn)
7. Cn1cc(-c2[nH]c3cc(NC(=O)[C@H](N)C4CCCCC4)cc4c3c2C=NNC4=O)cn1

Result ::
1: 19%; 2: 22%; 3: 15%; 4: 0%; 5: 12%; 6: 45%; 7: 82%

Consider the following items and state reported %Inh for each.
1. CCn1c(-c2nonc2N)nc2c(C#CC(C)(C)O)ncc(OCCCCN)c21.O=C(O)C(F)(F)F.O=C(O)C(F)(F)F
2. CC(C)(C)c1ccc2nccc(Nc3cccc(O)c3)c2c1
3. Cc1cccc(NC(=O)Nc2ccc(Oc3ncnc4ccn(C)c34)cc2)c1

Result ::
["6%", "8%", "2%"]

Consider the following items and state reported %Inh for each.
1. CC(C)c1nc(-c2cccc(NS(=O)(=O)c3c(F)cccc3F)c2F)c(-c2ccnc(Nc3ccc(N4CCOCC4)nc3)n2)s1
2. COC(=O)Nc1nc2cc(Oc3ccc(NC(=O)Nc4cc(C(F)(F)F)ccc4F)cn3)ccc2[nH]1.Cl.Cl
3. CSc1cccc2c(-c3ccncn3)c(-c3ccc(F)cc3)nn12
4. CN1CCN(CCCNc2nccc(-c3c(-c4ccc(F)cc4)nn4cc(C(F)(F)F)ccc34)n2)CC1

Result ::
1. 0%
2. 12%
3. 8%
4. 0%
